System: Mus musculus
Test: Potency index, ratio of chlordiazepoxide ED50 to compound ED50 for hypnotic activity in po dosed albino Swiss-Webster mouse
Assay type: functional
REPORTED_METRIC: Ratio ED50
Answers are plain numbers.

Give measured Ratio ED50 for every item shown.
1. O=C1Nc2ccc(Cl)cc2C(c2ccccc2Cl)=NC1OCCO (stereo unspecified)
2. O=C1Nc2ccc(Cl)cc2C(c2ccccc2)=NC1OCCO (stereo unspecified)
3. CN1C(=O)C(OC(=O)C(Cl)(Cl)Cl)N=C(c2ccccc2)c2cc(Cl)ccc21 (stereo unspecified)
4. CC1(C)OCC(COC2N=C(c3ccccc3)c3cc(Cl)ccc3NC2=O)O1 (stereo unspecified)
5. O=C1Nc2ccc(Cl)cc2C(c2ccccc2)=NC1OCC(O)CO (stereo unspecified)
6. CC1(C)OCC(COC2N=C(c3ccccc3Cl)c3cc(Cl)ccc3NC2=O)O1 (stereo unspecified)

[A]
[0.65, 0.35, 0.9, 0.52, 0.51, 2]

====

Assay: Toxicity in po dosed albino Swiss-Webster mouse
Format: organism-based
Details: in vivo
Mark y only for LD50 values smaller than 9000 µmol/kg; exact matches and larger values are n.

Would you please look over these solved cases?
INSERT INTO results (compound, answer_label) VALUES
  ('CC1(C)OCC(COC2N=C(c3ccccc3Cl)c3cc(Cl)ccc3NC2=O)O1 (stereo not given)', 'y'),
  ('CN1C(=O)C(OC(=O)C(Cl)(Cl)Cl)N=C(c2ccccc2)c2cc(Cl)ccc21 (stereo not given)', 'y'),
  ('CC1(C)OCC(COC2N=C(c3ccccc3)c3cc(Cl)ccc3NC2=O)O1 (stereo not given)', 'n'),
  ('O=C1Nc2ccc(Cl)cc2C(c2ccccc2Cl)=NC1OCCO (stereo not given)', 'n');

Kindly consider the entry below.
[Q] Below 9000 µmol/kg on LD50? Entry CN1C(=O)C(OCC(O)CO)N=C(c2ccccc2)c2cc(Cl)ccc21 (stereo not given)
[A] n

====

Kindly supply the reported Ratio ED50 values for the records listed here.
Tested on: Mus musculus
Assay: Potency index, ratio of chlordiazepoxide ED50 to compound ED50 for hypnotic activity in po dosed albino Swiss-Webster mouse
Assay type: functional

Sample records with Ratio ED50:
INSERT INTO results (compound, value_reported) VALUES
  ('CN1CCN=C(c2ccccc2)c2cc(Cl)ccc21', 0.3),
  ('CC(=O)OC[C@H]1O[C@H](OCCOC2N=C(c3ccccc3)c3cc(Cl)ccc3NC2=O)[C@H](OC(C)=O)[C@@H](OC(C)=O)[C@@H]1OC(C)=O (mixture of isomers)', 0.9),
  ('CC(=O)OC[C@H]1O[C@@H](OCCOC2N=C(c3ccccc3)c3cc(Cl)ccc3NC2=O)[C@H](OC(C)=O)[C@@H](OC(C)=O)[C@@H]1OC(C)=O (mixture of isomers)', 0.76),
  ('CN1C(=O)C(OCC(O)CO)N=C(c2ccccc2)c2cc(Cl)ccc21 (stereo not drawn)', 0.42),
  ('CN1C(=O)C(OCCO)N=C(c2ccccc2)c2cc(Cl)ccc21 (stereo not drawn)', 0.4);

Give measured Ratio ED50 for every item shown.
1. O=C1Nc2ccc(Cl)cc2C(c2ccccc2Cl)=NC1OCC(O)CO (stereo not drawn)
2. CN1C(=O)C(OCC2COC(C)(C)O2)N=C(c2ccccc2)c2cc(Cl)ccc21 (stereo not drawn)
3. O=C1Nc2ccc(Cl)cc2C(c2ccccc2)=NC1OC(=O)C(Cl)(Cl)Cl (stereo not drawn)

[A]
[0.58, 2.3, 0.73]
